B1: LINE1-full (parent)
chain: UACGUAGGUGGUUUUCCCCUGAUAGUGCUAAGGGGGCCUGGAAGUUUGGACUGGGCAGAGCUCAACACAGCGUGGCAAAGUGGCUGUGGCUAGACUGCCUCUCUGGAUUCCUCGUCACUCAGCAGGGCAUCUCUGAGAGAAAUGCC

- Variants of: B1
- Assay details: self-cleavage, relative activity (ratio to wild type); higher = more cleavage; in vitro, sequencing; the parent is a self-cleaving ribozyme
Short version: self-cleavage at least 0.3 is true (1), less is false (0).

Query block: Does C66U U102A have a reported self-cleavage of at least 0.3?
Result block: false (0)

Query block: Test whether the variant A65G U108C records self-cleavage of 0.3 or higher.
Result block: false (0)

Query block: Identify whether the reported self-cleavage of the following variant is 0.3 or greater: C68U G88A
Result block: false (0)

Query block: Assess whether reported self-cleavage for A57U U62C sits at 0.3 or higher.
Result block: false (0)

Query block: Quick check: does U115A U132G have self-cleavage greater than or equal to 0.3?
Result block: true (1)

Query block: Quick check, self-cleavage >= 0.3? U73C A94G
Result block: true (1)

Query block: Hello, I need to know if C38U U85C has measured self-cleavage not below 0.3. Thanks!
Result block: false (0)

Query block: Could you please find out whether G35C C113A has self-cleavage that meets 0.3 or exceeds it?
Result block: true (1)

Query block: Hello, I need to know if U102C A117C has measured self-cleavage not below 0.3. Thanks!
Result block: true (1)

Query block: # bool: self-cleavage of U26C C61A >= 0.3
Result block: false (0)

Query block: Does the reported self-cleavage for U81A U132C fall at or above the 0.3 mark?
Result block: true (1)

Query block: Is it the case that G80U U109C has self-cleavage reaching or exceeding 0.3?
Result block: true (1)

Query block: Determine whether this variant has self-cleavage no lower than 0.3: G89A U100A
Result block: false (0)

Query block: Tell me whether self-cleavage is at least 0.3 here: A22C U96C
Result block: false (0)

Query block: Is it the case that G114A A129U has self-cleavage reaching or exceeding 0.3?
Result block: true (1)

Query block: Is self-cleavage for A50U U73C at or above 0.3?
Result block: true (1)

Query block: Exam item: decide whether the reported self-cleavage for A59C U102A is at least 0.3.
Result block: true (1)

Query block: Item G48A U132A with self-cleavage of 0.3 or above?
Result block: true (1)

Query block: Could you tell me if the measured self-cleavage of U26A A92U reaches 0.3 or more?
Result block: true (1)

Query block: // inclusive: self-cleavage at least 0.3? input: U15A U91C
Result block: true (1)

Query block: Is the recorded value of self-cleavage equal to or greater than 0.3 for this variant? U39C U87A
Result block: false (0)

Query block: Answer whether self-cleavage of G34A A57C is greater than or equal to 0.3.
Result block: false (0)

Query block: Textbook exercise: given the entry A50G U87C , state whether its self-cleavage is greater than or equal to 0.3.
Result block: false (0)

Query block: self-cleavage >= 0.3 for U81A A124G ?
Result block: true (1)

Query block: Reported self-cleavage reaches at least 0.3 for U62G A78G ?
Result block: false (0)

Query block: Does the variant U46C U85C have recorded self-cleavage that is 0.3 or more?
Result block: true (1)

Query block: Given the entry C28G U134C , answer whether its self-cleavage meets or surpasses 0.3.
Result block: true (1)

Query block: Would you say G21A U115C shows self-cleavage at minimum 0.3?
Result block: true (1)

Query block: Has U26C G114U a recorded self-cleavage greater than or equal to 0.3?
Result block: true (1)

Query block: Could you verify whether the entry A57G G126A shows self-cleavage of no less than 0.3?
Result block: true (1)

Query block: Is the recorded value of self-cleavage equal to or greater than 0.3 for this variant? U9A U132C
Result block: true (1)

Query block: Decide: is the reported value of self-cleavage for U20A G97C equal to or greater than 0.3?
Result block: true (1)

Query block: Please check the record U39A U102C and state if its self-cleavage is at or above 0.3.
Result block: true (1)

Query block: Answer whether self-cleavage of A30U A117G is greater than or equal to 0.3.
Result block: true (1)
